All values here come from patent US20170008955A1.

We begin with a simple list: items and their reported koff.
- system-under-test: T1, cSNK:BSA conjugate (bovine, head-to-tail cyclized; conjugated to BSA carrier)
- T1 construct: also called BSA-cSNK
- T1 sequence (P02769 25-607 limits assumed): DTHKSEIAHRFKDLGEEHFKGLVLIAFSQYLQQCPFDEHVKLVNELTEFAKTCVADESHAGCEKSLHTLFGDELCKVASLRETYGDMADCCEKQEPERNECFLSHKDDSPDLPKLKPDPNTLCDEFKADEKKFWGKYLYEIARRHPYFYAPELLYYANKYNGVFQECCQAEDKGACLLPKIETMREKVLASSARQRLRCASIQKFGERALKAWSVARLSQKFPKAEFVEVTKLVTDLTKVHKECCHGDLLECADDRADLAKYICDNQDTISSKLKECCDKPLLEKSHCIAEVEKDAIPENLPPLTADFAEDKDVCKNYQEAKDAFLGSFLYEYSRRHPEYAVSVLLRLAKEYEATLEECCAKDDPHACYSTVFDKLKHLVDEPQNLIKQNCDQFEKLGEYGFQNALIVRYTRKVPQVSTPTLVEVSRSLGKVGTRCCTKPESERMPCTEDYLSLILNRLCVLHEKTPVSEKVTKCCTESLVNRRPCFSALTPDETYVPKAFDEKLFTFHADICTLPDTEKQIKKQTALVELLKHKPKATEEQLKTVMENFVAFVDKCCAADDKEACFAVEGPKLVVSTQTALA
- test-details: BLI 2:1 fit, site 1; 6.25 nM row
Form entry: value (s⁻¹) — number only.

These recorded examples may help you get a feel for the data.
binder | recorded-measurement
murine monoclonal antibody 5E3 (antibody, V domains shown, mouse antibody of the 5E3 hybridoma; also called murine 5E3; m5E3) VH: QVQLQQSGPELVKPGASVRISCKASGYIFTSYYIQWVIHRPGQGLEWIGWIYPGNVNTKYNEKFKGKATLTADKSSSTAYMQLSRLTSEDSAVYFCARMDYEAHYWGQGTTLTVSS VL: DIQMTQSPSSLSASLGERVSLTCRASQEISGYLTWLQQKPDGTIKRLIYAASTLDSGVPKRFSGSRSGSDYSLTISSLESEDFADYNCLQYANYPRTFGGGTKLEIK | 0.000428
hu5E3-IgG1 (antibody, V domains shown, human IgG1/kappa; also called humanized 5E3 IgG1; IHA variant) VH: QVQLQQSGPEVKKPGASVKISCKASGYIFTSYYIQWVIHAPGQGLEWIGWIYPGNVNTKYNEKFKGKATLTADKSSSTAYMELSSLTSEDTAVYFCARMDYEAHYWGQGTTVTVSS VL: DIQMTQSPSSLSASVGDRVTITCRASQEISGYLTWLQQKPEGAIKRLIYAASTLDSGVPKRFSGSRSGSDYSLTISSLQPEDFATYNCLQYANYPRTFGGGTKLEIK | 0.000825
hu5E3-IgG4 (antibody, V domains shown, human IgG4/kappa; also called humanized 5E3 IgG4) VH: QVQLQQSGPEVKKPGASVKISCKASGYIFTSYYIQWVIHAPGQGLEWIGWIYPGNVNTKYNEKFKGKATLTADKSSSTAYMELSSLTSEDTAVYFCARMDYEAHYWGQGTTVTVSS VL: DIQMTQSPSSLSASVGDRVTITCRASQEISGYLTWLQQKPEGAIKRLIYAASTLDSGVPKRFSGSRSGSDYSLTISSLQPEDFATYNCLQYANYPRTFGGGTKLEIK | 0.00055

Now consider the entry below.
Request: koff for hu5E3-IgG2 (antibody, V domains shown, human IgG2/kappa; also called humanized 5E3 IgG2) VH: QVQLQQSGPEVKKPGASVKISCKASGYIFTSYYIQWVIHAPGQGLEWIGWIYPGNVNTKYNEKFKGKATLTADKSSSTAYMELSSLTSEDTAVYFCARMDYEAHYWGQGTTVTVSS VL: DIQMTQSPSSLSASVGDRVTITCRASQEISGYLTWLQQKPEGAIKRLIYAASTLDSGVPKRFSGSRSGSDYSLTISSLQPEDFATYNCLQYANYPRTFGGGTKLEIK ?
Result: 0.000762
